Tested on: MDR1 (human)
TEST_METHOD_NOTES: Efflux ratio of permeability from basolateral to apical side to apical to basolateral side of dog RRCK cells expressing human MDR1
Type: ADME, cell-based, Canis lupus familiaris, MDCKII-LE
METRIC_NAME: efflux ratio
Could you keep your reply to the number by itself?

| SMILES_TEXT | MEASURED_VALUE |
| --- | --- |
| N#Cc1ccc(-c2c(-c3nnc[nH]3)sc(N3CCOCC3)c2C#N)c(F)c1 | 2.6 |

With those in mind, consider the next molecule.
Short answer on MDR1 (human) for N#Cc1c(N2CCOCC2)sc(-c2nnc[nH]2)c1-c1ccc(Cl)cc1Cl , efflux ratio: 2.56
